Data provenance: patent US20180057507A1

Biological target: human DLK (Homo sapiens)
Sequence (Q12852 1-859): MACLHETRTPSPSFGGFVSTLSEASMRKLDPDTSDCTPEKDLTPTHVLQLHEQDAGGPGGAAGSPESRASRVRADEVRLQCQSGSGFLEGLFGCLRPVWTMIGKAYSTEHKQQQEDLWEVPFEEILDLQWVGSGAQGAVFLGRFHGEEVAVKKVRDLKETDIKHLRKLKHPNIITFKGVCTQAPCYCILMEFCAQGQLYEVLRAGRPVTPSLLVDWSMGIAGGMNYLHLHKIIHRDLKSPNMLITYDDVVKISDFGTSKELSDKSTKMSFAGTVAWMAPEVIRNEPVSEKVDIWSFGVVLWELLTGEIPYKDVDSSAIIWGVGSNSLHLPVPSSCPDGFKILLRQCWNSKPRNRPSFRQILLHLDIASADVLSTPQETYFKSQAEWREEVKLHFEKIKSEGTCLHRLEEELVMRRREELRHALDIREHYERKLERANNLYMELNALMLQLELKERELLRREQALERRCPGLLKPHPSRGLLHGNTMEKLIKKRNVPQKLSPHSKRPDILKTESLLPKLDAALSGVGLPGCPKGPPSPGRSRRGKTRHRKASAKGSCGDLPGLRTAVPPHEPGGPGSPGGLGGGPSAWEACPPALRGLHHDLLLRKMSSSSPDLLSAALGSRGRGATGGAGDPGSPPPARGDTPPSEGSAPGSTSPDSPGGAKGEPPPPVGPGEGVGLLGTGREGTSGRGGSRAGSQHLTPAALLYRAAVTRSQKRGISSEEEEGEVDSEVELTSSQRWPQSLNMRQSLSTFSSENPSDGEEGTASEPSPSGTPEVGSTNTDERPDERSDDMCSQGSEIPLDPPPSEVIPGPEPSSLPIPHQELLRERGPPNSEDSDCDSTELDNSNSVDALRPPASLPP
Experiment: DLK Kd Determinations (KINOMEscan KdELECT, DiscoveRx)
Conditions: fusion protein of full length human DLK (amino acids 1-859) and NFkB DNA binding domain; qPCR readout; duplicate
parameter.measured: Kd (nM)
Return type: number; implicit unit nM.

Here is how some compounds turned out for Kd.
CC(=O)N1C[C@@H]2[C@H](C1)[C@H]2n1cc(-c2cnc(N)c(C(F)(F)F)c2)nc1C(C)C    170
CC(C)c1nc(-c2cnc(N)c(OC(F)(F)F)c2)cn1[C@H]1[C@@H]2CNC[C@@H]21    94
Nc1ncc(-c2cn([C@H]3[C@@H]4CC(N5CCN(CCF)CC5)C[C@@H]43)c(C3CC3)n2)cc1C(F)(F)F (single isomer, unassigned) [Example 153b]    9
CC(C)c1nc(-c2cnc(N)c(C(F)(F)F)c2)cn1[C@H]1[C@@H]2CC(N3CCN(C)CC3)C[C@@H]21 (stereo partly shown) [Example 132]    22
CC1OCCn2cc(-c3cnc(N)c(C(F)(F)F)c3)nc21 (stereo not shown)    3300

Enquiry: Kindly state the measured Kd obtained for "COCCN1C[C@@H]2[C@H](C1)[C@H]2n1cc(-c2cnc(N)c(OC(F)(F)F)c2)nc1C1CC1" with human DLK (Homo sapiens).
Return: 77

Enquiry: And "CC(C)c1nc(-c2cnc(N)c(C(F)(F)F)c2)cn1C1CC1" ?
Return: 130

Enquiry: And "Nc1ncc(-c2cn([C@H]3[C@@H]4CN(C5CCOCC5)C[C@@H]43)c(CC3CC3)n2)cc1OC(F)(F)F" ?
Return: 57

Enquiry: And C[C@H]1COCCN1C1C[C@@H]2[C@H](C1)[C@H]2n1cc(-c2cnc(N)c(C(F)(F)F)c2)nc1C1CC1 (single isomer, unassigned) [Example 140a] ?
Return: 32

Enquiry: And CC(C)c1nc(-c2cnc(N)c(C(F)(F)F)c2)cn1[C@H]1[C@@H]2CC(N3CCCOCC3)C[C@@H]21 (stereo partly shown) [Example 130] ?
Return: 25

Enquiry: And "Nc1ncc(-c2cn([C@H]3[C@@H]4CN(CC(F)(F)F)C[C@@H]43)c(C3CC3)n2)cc1OC(F)F" ?
Return: 140

Enquiry: And Nc1ncc(-c2cn([C@H]3[C@@H]4CC(N5CCN(CCF)CC5)C[C@@H]43)c(CC3CC3)n2)cc1OC(F)(F)F (single isomer, unassigned) [Example 152a] ?
Return: 37

====

Molecular target: human DLK (Homo sapiens)
Sequence (Q12852 1-859): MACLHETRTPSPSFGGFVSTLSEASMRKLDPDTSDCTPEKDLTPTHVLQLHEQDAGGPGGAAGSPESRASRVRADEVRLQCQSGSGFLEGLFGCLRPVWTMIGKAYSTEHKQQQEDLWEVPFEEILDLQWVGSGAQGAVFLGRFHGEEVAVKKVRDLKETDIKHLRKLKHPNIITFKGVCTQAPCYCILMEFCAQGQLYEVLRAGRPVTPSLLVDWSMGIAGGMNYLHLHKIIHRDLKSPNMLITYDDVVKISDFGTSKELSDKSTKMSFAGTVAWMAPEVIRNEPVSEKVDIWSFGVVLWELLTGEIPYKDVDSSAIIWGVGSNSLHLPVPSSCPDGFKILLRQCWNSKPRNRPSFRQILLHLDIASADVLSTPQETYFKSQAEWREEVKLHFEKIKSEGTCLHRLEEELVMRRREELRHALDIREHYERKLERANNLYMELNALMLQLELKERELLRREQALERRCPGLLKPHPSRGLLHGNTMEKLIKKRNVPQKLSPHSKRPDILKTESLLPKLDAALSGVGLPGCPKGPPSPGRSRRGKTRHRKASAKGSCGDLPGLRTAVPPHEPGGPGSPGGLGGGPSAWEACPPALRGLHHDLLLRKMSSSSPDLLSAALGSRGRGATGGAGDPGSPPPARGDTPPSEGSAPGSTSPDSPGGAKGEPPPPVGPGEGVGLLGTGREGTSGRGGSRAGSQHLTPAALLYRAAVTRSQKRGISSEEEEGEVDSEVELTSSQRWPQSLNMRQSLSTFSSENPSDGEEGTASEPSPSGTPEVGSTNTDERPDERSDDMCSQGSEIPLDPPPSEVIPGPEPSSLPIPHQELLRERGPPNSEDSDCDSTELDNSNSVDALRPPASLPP
Assay: DLK Kd Determinations (KINOMEscan KdELECT, DiscoveRx)
Details: fusion protein of full length human DLK (amino acids 1-859) and NFkB DNA binding domain; qPCR readout; duplicate
We label by threshold. Values of Kd strictly beneath 100 nM are 1. Values of 100 nM and up are -1.

Enquiry: Is it true that Kd reported for Nc1ncc(-c2cn([C@H]3[C@@H]4CC(N5CCOCC5)C[C@@H]43)c(C3CC3)n2)cc1C(F)(F)F (single isomer, unassigned) [Example 128a] is less than 100 nM?
Return: 1

====

Molecular target: human DLK (Homo sapiens, UniProt Q12852)
Sequence (Q12852 1-859): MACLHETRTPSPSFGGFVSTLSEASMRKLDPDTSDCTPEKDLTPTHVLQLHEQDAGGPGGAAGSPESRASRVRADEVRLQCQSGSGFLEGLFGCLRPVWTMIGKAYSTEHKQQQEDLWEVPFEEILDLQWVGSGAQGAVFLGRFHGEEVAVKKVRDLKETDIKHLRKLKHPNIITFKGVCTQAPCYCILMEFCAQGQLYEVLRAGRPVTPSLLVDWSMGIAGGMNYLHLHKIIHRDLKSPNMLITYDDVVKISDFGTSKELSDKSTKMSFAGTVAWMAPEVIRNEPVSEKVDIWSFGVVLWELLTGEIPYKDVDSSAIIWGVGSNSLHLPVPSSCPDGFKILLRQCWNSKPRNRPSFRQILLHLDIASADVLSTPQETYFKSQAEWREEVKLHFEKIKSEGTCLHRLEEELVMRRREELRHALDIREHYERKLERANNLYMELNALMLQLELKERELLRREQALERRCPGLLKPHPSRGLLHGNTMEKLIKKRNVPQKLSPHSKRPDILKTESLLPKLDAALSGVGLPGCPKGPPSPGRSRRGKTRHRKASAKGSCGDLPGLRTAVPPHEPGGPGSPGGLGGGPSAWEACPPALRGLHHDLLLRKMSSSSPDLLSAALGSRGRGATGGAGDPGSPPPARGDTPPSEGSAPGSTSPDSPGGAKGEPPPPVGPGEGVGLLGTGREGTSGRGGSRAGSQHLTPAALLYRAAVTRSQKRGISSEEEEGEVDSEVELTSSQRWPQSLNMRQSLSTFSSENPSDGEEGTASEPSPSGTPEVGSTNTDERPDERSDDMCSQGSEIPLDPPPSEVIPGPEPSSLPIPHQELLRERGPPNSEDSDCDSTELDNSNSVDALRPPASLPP
Experiment: DLK Kd Determinations (KINOMEscan KdELECT, DiscoveRx)
Details: fusion protein of full length human DLK (amino acids 1-859) and NFkB DNA binding domain; qPCR readout; duplicate
parameter.measured: pKd
// returns pKd (minus log10 of molar concentration), number only

Enquiry: Quick one: pKd for Nc1ncc(-c2cn([C@H]3[C@@H]4CC(N5CCCOCC5)C[C@@H]43)c(C3CC3)n2)cc1C(F)(F)F (single isomer, unassigned) [Example 141b] ?
Return: 7.80
